Where do the numbers come from? From patent US9056111B1.

# testedOn: ABCG2 (Homo sapiens)
# Sequence (Q9UNQ0 1-655): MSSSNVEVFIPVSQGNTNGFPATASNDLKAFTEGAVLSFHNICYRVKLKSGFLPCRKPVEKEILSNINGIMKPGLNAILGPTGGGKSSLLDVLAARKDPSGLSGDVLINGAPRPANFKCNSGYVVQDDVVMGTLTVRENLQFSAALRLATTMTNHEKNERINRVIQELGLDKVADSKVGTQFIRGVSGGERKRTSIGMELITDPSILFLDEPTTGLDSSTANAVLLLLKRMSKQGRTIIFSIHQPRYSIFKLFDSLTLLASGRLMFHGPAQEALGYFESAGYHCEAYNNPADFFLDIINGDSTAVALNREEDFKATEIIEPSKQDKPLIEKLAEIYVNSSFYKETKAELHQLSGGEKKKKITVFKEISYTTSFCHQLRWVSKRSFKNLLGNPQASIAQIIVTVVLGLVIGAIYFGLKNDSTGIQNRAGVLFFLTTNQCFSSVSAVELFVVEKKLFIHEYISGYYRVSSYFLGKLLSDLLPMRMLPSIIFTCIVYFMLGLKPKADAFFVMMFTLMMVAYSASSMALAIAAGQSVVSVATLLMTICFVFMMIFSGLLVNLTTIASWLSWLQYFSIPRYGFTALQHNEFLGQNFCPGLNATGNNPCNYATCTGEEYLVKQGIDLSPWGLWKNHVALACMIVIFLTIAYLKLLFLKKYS
# measurementDescription: JC-1 efflux inhibition dose response, flow cytometry, Ig-MXP3 cells
experimentalReadout: pIC50
Answers are plain numbers, as −log10 of the molar value.

Consider the reported pIC50 for these compounds:
{"compound": "Cc1cccc(-c2cc3nc(-c4ccccc4)cc(N4CCN(C(=O)c5ccco5)CC4)n3n2)c1", "pIC50": 5.61}
{"compound": "COc1ccccc1C(=O)N1CCN(c2cc(-c3ccccc3)nc3cc(-c4cccc(Cl)c4)nn23)CC1", "pIC50": 5.31}
{"compound": "COc1cccc(-c2cc(N3CCN(C(=O)c4ccoc4)CC3)n3nc(-c4ccccc4)cc3n2)c1", "pIC50": 6.70}
{"compound": "O=C(c1ccccc1)N1CCN(c2cc(-c3ccccc3)nc3cc(-c4cccc(Cl)c4)nn23)CC1", "pIC50": 5.84}
{"compound": "COc1cccc(-c2cc3nc(-c4ccccc4)cc(N4CCN(C(=O)c5ccco5)CC4)n3n2)c1", "pIC50": 5.85}

Below are some compounds; for each one, tell me its pIC50.
1. COc1ccc(C(=O)N2CCN(c3cc(-c4ccccc4)nc4cc(-c5cccc(Cl)c5)nn34)CC2)cc1
2. O=C(c1ccoc1)N1CCN(c2cc(-c3ccco3)nc3cc(-c4ccc(Cl)cc4)nn23)CC1
3. O=C(c1ccoc1)N1CCN(c2cc(-c3ccco3)nc3cc(-c4cccc(-c5ccco5)c4)nn23)CC1

[5.55, 5.72, 6.03]

Below are some compounds; for each one, tell me its pIC50.
1. O=C(c1ccco1)N1CCN(c2cc(-c3ccccc3)nc3cc(-c4ccc(Cl)cc4)nn23)CC1
2. COc1ccc(-c2cc3nc(-c4ccccc4)cc(N4CCN(C(=O)c5ccoc5)CC4)n3n2)cc1
3. O=C(c1ccco1)N1CCN(c2cc(-c3ccco3)nc3cc(-c4ccccc4)nn23)CC1
4. CC(C)(C)c1cc(N2CCN(C(=O)c3ccoc3)CC2)n2nc(-c3ccccc3)cc2n1
5. O=C(c1ccoc1)N1CCN(c2cc(-c3ccccc3F)nc3cc(-c4ccccc4)nn23)CC1
6. CC(=O)N1CCN(c2cc(-c3ccccc3)nc3cc(-c4cccc(Cl)c4)nn23)CC1
7. CC1CN(C(=O)c2ccoc2)CCN1c1cc(-c2ccco2)nc2cc(-c3ccccc3)nn12 (stereo not shown)
8. O=C(c1ccoc1)N1CCN(c2cc(-c3ccc(F)cc3)nc3cc(-c4ccccc4)nn23)CC1

1. 5.86
2. 5.94
3. 5.56
4. 4.94
5. 6.25
6. 5.22
7. 5.33
8. 5.19
